Ref: ChEMBL document CHEMBL3507680

test protocol: Human HepG2 cell viability assay in 384 well format
Assay type: toxicity, cell-based
Design: dose 125 nL, time 70.5 hour; concentration not given beside the values
cond: HepG2 cells, read-out: Inhibition
Give measured cytotoxicity at 70.5 h for each item. Keep answers brief.
Give bare numbers, in %.

For each of the items listed, what is its cytotoxicity at 70.5 h?
1. Cc1nn(C)c(Cl)c1C1CCCN1C(=O)c1ccncc1 (configuration not stated)
2. O=C(NCCCn1ccnc1)c1csc2c1CCCC2
3. COc1ccc2c(c1)C(=O)NC1(CC2)CCN(Cc2ccc(F)cc2)C1 (configuration not stated)
4. O=C(Nc1cn[nH]c1)N(CCO)C1CCc2ccccc21 (configuration not stated)
5. O=C(NCc1ccc(-n2cncn2)nc1)c1ccc2c(c1)CCO2
6. CCC[C@@H]1CN(Cc2ccc(C(F)(F)F)nc2)C[C@H]1NS(C)(=O)=O
7. CCc1nnc(Nc2cccc(C3CCN(C(=O)CNC)CC3)n2)s1
8. CN(Cc1cc(-c2ccncc2)no1)Cc1nccn1C

A:
[0.652, 15.4, 5.75, -13.9, -10.1, 11.1, 10.1, 10.3]

For each of the items listed, what is its cytotoxicity at 70.5 h?
1. Cc1cc(C)nc(N2CCC(NCCSc3nnnn3C)CC2)n1
2. CC(C)c1nc(C2CCCN(C(=O)c3ccc4[nH]nnc4c3)C2)no1 (configuration not stated)
3. Cc1ccn(-c2ccnc(N3CCSCC3)n2)n1
4. CCCOc1ccc(CC2=NC(C)(CO)CO2)cc1 (configuration not stated)

A:
11.2
-4
-0.283
12
